Reference source: PubChem BioAssay (NCI)

Field: GI50. Provide a value for each of the compounds that follow.
# System: T-47D breast
# ASSAY_PROCEDURE: NCI tumour cell line growth inhibition, 48 h

Return reported GI50; argument: CCc1ccc(Nc2cc(C)nc3nc(C)nn23)cc1
21.3 µM

Which GI50 reading was recorded for the compound C=C(CN1CCN(c2cccc(F)c2)CC1)c1ccc(C(=O)Nc2ccccc2N)cc1 ?
4.38 µM

Request the reported GI50 associated with Oc1cc2ccccc2cc1-c1n[nH]c(=S)n1-c1ccc(Cl)cc1
31.6 µM

Need GI50 of O=c1cccc(C#CC#C/C=C/CO)o1 , thanks.
2.36 µM

For the compound COc1ccc(CNc2nc(NCc3ccc(OC)cc3)c3n[nH]c(C(C)C)c3n2)cc1 , what GI50 is on record?
3.38 µM

What GI50 value was documented for this compound, COc1ccc(Nc2ncccc2C(=O)NCc2cn(Cc3cccc(Oc4ccccc4)c3)nn2)cc1 ?
4.03 µM
